# Test system: human NOD2 signaling
# Test details: Inhibition of human NOD2 signaling in HEK-Blue-hNOD2 cells (L18-MDP stimulated, SEAP reporter)
# Format: cell-based
# Measurement parameters: Homo sapiens, HEK-Blue hNOD2, HEK-Blue-hNOD2 cells, NOD2 ligand stimulation, SEAP reporter; read-out: hNOD2 IC50
Counter-ions that a name gives are not always drawn.
Measure: IC50 (nM)

Compound	System name	IC50 / nM
[2H]C([2H])([2H])C(n1cc(NC(=O)Cc2cc(C)c(Oc3ccnc4cc(F)c(C(=O)NC)cc34)c(F)c2)cn1)(C([2H])([2H])[2H])C([2H])([2H])[2H]	human NOD2 signaling	1.4

P. CNC(=O)c1cc2c(Oc3cc(F)c(CC(=O)Nc4cnn(C(C)(C)C)c4)cc3C)ccnc2cc1C
Q. CNC(=O)C1(c2ccc3nccc(Oc4cc(F)c(CC(=O)Nc5cnn(C(C)(C)C)c5)cc4C)c3c2)CC1 [Compound 571, formic acid salt]
For the two items P and Q , which reports the higher IC50 value? Choose, then provide that item's label.
P

###

# System: TNF-alpha secretion in human whole blood
# Test details: Inhibition of TNF-alpha secretion in human whole blood (IFN-gamma primed, L18-MDP stimulated)
# Type: cell-based
# Measurement parameters: Homo sapiens, 16 h, L18-MDP 100 ng/mL, read-out: Human Whole Blood TNFα IC50
pIC50: −log10 of the molar value.
Measure: pIC50

Compound	Value measured
Cc1cc(CC(=O)Nc2nnc(C(C)(C)C)s2)c(F)cc1Oc1ccnc2ccc(S(C)(=O)=O)cc12 [Compound 443]	7.08
Cc1cc(CC(=O)Nc2cnn(C34CC(C3)C4)c2)ccc1Oc1ccnc2ccc(S(C)(=O)=O)cc12 [Compound 239]	7.43

1. [2H]C([2H])([2H])NC(=O)c1ccc2nccc(Oc3cc(F)c(CC(=O)Nc4cnn(C(C)(C)C)c4)cc3C)c2c1 [Compound 492]
2. Cc1c(Oc2ccnc3ccc(S(=O)(=O)C4CC4)cc23)ccc(CC(=O)Nc2cnn(C(C)(C)C)c2)c1F [Compound 174]
Which one would you say has the larger pIC50 value: 1 , or 2 ? Answer format: the label of the selected item.
2
(2: 8.70, 1: 8.23)

###

Recorded pIC50 by entry
# System name: RIPK2 enzyme (Homo sapiens, UniProt O43353)
# Construct: purchased Carna 09-128
# Sequence (O43353 1-299 limits assumed): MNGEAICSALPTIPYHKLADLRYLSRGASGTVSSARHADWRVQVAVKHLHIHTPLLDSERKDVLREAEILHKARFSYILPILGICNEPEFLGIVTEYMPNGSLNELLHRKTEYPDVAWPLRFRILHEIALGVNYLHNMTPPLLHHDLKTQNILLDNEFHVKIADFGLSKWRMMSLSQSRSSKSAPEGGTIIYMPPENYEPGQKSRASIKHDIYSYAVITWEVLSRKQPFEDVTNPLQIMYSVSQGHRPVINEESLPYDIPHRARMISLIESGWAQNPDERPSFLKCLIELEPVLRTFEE
# Test details: RIPK2 inhibition (ADP-Glo Kinase Assay)
# Format: biochemical
# Measurement parameters: RIPK2 5 nM, ATP 150 μM, MBP substrate, read-out: RIPK2 IC50
# Method: RIPK2 inhibition was measured as follows: The V9102 ADP-Glo Kinase Assay (including ultrapure ATP, 10 mM) was purchased from Promega. […] Method: In a 384 well plate, 10 nL of test compound was dispensed using Echo550 and mixed with RIPK2 enzyme (final concentration of 5 nM) in assay buffer for 30 minutes at room temperature. […] The resulting luminescent signal was measured with an Envision reader to determine the amount of ADP produced. […]
pIC50: −log10 of the molar value.

# annotated cases, reported pIC50 shown
Compound	pIC50
COc1ccc2nccc(Oc3cnc(CC(=O)Nc4cnn(C(C)(C)C)c4)c(F)c3)c2c1	8.05
COC(C)(C)c1cc(NC(=O)Cc2ccc(Oc3ccnc4ccc(S(C)(=O)=O)cc34)c(C)c2F)[nH]n1	> 8.60
Cc1cc(CC(=O)Nc2cnn(C(C)(C)C)c2)c(F)cc1Oc1ccnc2ccc(C(F)(F)C(N)=O)cc12	> 8.60

Quote pIC50 reported for Cc1c(Oc2ccnc3ccc(S(=O)(=O)C4CCOC4)cc23)ccc(CC(=O)Nc2cnn(C(C)(C)C)c2)c1F (single isomer, unassigned) [Compound 251] please.
> 8.60

Fill in pIC50 for record "CNC(=O)c1ccc2nccc(Oc3c(C)cc(CC(=O)Nc4cnn(C56CC(C5)C6)c4)cc3Cl)c2c1"
> 8.60

Supply reported pIC50 belonging to this compound: C[S+]([O-])c1ccc2ncnc(Oc3ccc(CC(=O)Nc4cnn(C(C)(C)C)c4)c(F)c3)c2c1 (centres unmarked)
7.58

Give the reported pIC50 for this compound. CCS(=N)(=O)c1ccc2nccc(Oc3ccc(CC(=O)Nc4cnn(C(C)(C)C)c4)c(F)c3C)c2c1 (single isomer, unassigned) [Compound 535]
> 8.60

Specify reported pIC50 for the compound shown: Cc1cc(CC(=O)Nc2cnn(C(C)(C)C)c2)ccc1Oc1ccnc2ccc(S(=O)(=O)C3CCNC3)cc12 (single isomer, unassigned) [Compound 202]
> 8.60

Output pIC50 of "Cc1cc(CC(=O)Nc2cnn(C(C)(C)C)c2)c(F)cc1Oc1ccnc2ccc(OC3CCN(C)CC3)cc12"
> 8.60

Fill in pIC50 for record "Cc1c(Oc2ccnc3ccc(S(=O)(=O)N(C)C)cc23)ccc(CC(=O)Nc2cnn(C(C)(C)C)c2)c1F"
> 8.60

// Input: "COC(C)(C)c1ccc2nccc(Oc3ccc(CC(=O)Nc4cnn(C(C)(C)C)c4)c(F)c3C)c2c1" . Output its pIC50 only.
> 8.60

Tell me its pIC50 given "Cc1c(Oc2ccnc3ccc(S(=O)(=O)C4CC4)cc23)ccc(CC(=O)Nc2cnn(C(C)(C)C)c2)c1F" as the entry.
> 8.60

Name the recorded pIC50 of the compound listed here: "CC(C)(C)c1cc(NC(=O)Cc2ccc(Oc3ccnc4ccc(OC5CCNCC5)cc34)cc2F)n[nH]1"
> 8.60

For the compound "CN1[C@@H]2CC[C@H]1C[C@@H](Oc1ccc3ncnc(Oc4cnc(CC(=O)Nc5cnn(C(C)(C)C)c5)c(F)c4)c3c1)C2" , report pIC50.
7.88

###

# System name: RIPK2 enzyme (Homo sapiens)
# Construct: purchased Carna 09-128
# Test details: RIPK2 inhibition (ADP-Glo Kinase Assay)
# Assay type: biochemical
# Measurement parameters: RIPK2 5 nM, ATP 150 μM, MBP substrate, read-out: RIPK2 IC50
# Description: RIPK2 inhibition was measured as follows: The V9102 ADP-Glo Kinase Assay (including ultrapure ATP, 10 mM) was purchased from Promega. […] Method: In a 384 well plate, 10 nL of test compound was dispensed using Echo550 and mixed with RIPK2 enzyme (final concentration of 5 nM) in assay buffer for 30 minutes at room temperature. […] The resulting luminescent signal was measured with an Envision reader to determine the amount of ADP produced. […]
Measure: IC50 (nM)

P. Cc1cc(CC(=O)Nc2cnn(C(C)(C)C)c2)c(F)cc1Oc1ccnc2ccc(C3(C(N)=O)CC3)cc12
Q. CN(C)C1CCN(c2ccc3nccc(Oc4cnc(CC(=O)Nc5cnn(C(C)(C)C)c5)c(F)c4)c3c2)C1 (single isomer, unassigned) [Compound 141]
R. CC(C)(C)c1cc(NC(=O)Cc2ncc(Oc3ccnc4ccc(S(C)(=O)=O)cc34)cc2F)n[nH]1
Highest IC50 first, then in falling order down to the smallest. Give the labels in the order specified.
Q, R, P

###

# System: human NOD2 signaling
# Test details: Inhibition of human NOD2 signaling in HEK-Blue-hNOD2 cells (L18-MDP stimulated, SEAP reporter)
# Assay type: cell-based
# Measurement parameters: Homo sapiens, HEK-Blue hNOD2, HEK-Blue-hNOD2 cells, NOD2 ligand stimulation, SEAP reporter; read-out: hNOD2 IC50
Structures can show the parent of a compound that is named as a salt.
Measure: IC50 (nM)

// known answers, use as guide
Compound	Measure	Value measured
CNC(=O)c1cc2c(Oc3c(C)cc(CC(=O)Nc4cnn(C(C)(C)C)c4)cc3C)ccnc2cc1F [Compound 582]	IC50	0.6
Cc1cc(CC(=O)Nc2noc(C(C)(C)C)n2)ccc1Oc1ccnc2ccc(S(C)(=O)=O)cc12 [Compound 182]	IC50	2
Cc1cc(CC(=O)Nc2cc(C(C)(C)C)[nH]n2)ccc1Oc1ccnc2cc(F)c(S(C)(=N)=O)cc12 (single isomer, unassigned) [Compound 620]	IC50	6.7
Cc1cc(CC(=O)Nc2cnn(C(C)(C)C)c2)ccc1Oc1ccnc2ccc(CS(C)(=O)=O)cc12 [Compound 560]	IC50	8.9
Cc1cc(CC(=O)Nc2cnn(C(C)(C)C)c2)c(F)cc1Oc1ccnc2ccc(-c3c[nH]nc3C)cc12 [Compound 479]	IC50	1.4
COc1n[nH]cc1-c1ccc2nccc(Oc3cc(F)c(CC(=O)Nc4cnn(C(C)(C)C)c4)cc3C)c2c1 [Compound 480]	IC50	0.8
CNC(=O)c1ccc2nccc(Oc3ccc(CC(=O)Nc4cnn(C(C)(C)C)c4)cc3C(F)F)c2c1 [Compound 463]	IC50	4
CNC(=O)c1cc2c(Oc3ccc(CC(=O)Nc4cnn(C(C)(C)C)c4)cc3C(F)F)ccnc2cc1F [Compound 576]	IC50	5.2
CNC(=O)Cc1ccc2nccc(Oc3cc(F)c(CC(=O)Nc4cnn(C(C)(C)C)c4)cc3C)c2c1 [Compound 567, formic acid salt]	IC50	9.8
CSc1ccc2nccc(Oc3ccc(CC(=O)Nc4cnn(C(C)(C)C)c4)cc3C)c2c1 [Compound 486]	IC50	1.8

A. Cc1cc(CC(=O)Nc2cnn(C(C)(C)C)c2)ccc1Oc1ncnc2ccc(CN3CCNCC3)cc12 [Compound 253]
B. Cc1cc(CC(=O)Nc2cnn(C(C)(C)C)c2)c(F)cc1Oc1ccnc2ccc(C3(C(N)=O)CC3)cc12 [Compound 570]
Compare the recorded IC50 of A and B ; state which is larger. // return label of chosen record
B

A. Cc1cc(CC(=O)Nc2cnn(C(C)(C)C)c2)ccc1Oc1ccnc2ccc(C3(C(N)=O)CC3)cc12 [Compound 603]
B. Cc1cc(CC(=O)Nc2cnn(C(C)(C)C)c2)c(F)cc1Oc1ccnc2ccc(-c3cncnc3C)cc12 [Compound 524]
For the two items A and B , which reports the higher IC50 value? Answer with the label corresponding to your selection.
A

Numbers sourced from patent US12624018B1.
